Some molecules, each annotated with its measured EC50.
Biological target: CCK-B receptors (CHO-CCK) (Homo sapiens)
Construct: expressed in transfected cells; host or cells: CHO (CHO-CCK model cells)
Test: Calcium flux (Fluo-8) antagonist test on CHO-CCK model cells in presence of CCK8
Format: cell-based
Settings: compound together with 10 nM CCK8
Procedure: The compound was formulated to a 10 mM mother liquor with DMSO, and then diluted into a series of 9 concentrations with a 3-fold gradient to form a 1000× stock solution. […] Prepare 1×Fluo-8 analysis buffer: mix 9 mL of HHBS, 1 mL of 10× Pluronic F127 Plus and 20 μL of Fluo-8 thoroughly for later use. • 3. Add Fluo-8 dye working solution to the cell plate, 100 μL/well. […] In the process of incubating cells, the compounds to be detected were prepared with HHBS. • 5. […]
recordedMetric: EC50 (nM)

[
  {
    "molecule": "CSCC[C@H](NC(=O)[C@H](N)Cc1c[nH]c2ccccc12)C(=O)N[C@@H](CC(=O)O)C(=O)N[C@@H](Cc1ccc(I)cc1)C(N)=O",
    "recordedMeasurement": 1220
  },
  {
    "molecule": "CSCC[C@H](NC(=O)[C@H](N)Cc1c[nH]c2ccccc12)C(=O)N[C@@H](CC(=O)O)C(=O)N[C@@H](Cc1cc(F)cc(F)c1)C(N)=O",
    "recordedMeasurement": 631
  },
  {
    "molecule": "CC(=O)N[C@H](Cc1c[nH]c2ccccc12)C(=O)N[C@@H](CCC(N)=O)C(=O)N[C@@H](CC(=O)O)C(=O)N[C@@H](Cc1cccc(Br)c1)C(N)=O [HT-184, Ac-D-Trp-Glu-Asp-Phe(3-Br)-NH2]",
    "recordedMeasurement": 4410
  },
  {
    "molecule": "CSCC[C@H](NC(=O)[C@H](N)Cc1c[nH]c2ccccc12)C(=O)N[C@@H](CC(=O)O)C(=O)N[C@@H](Cc1ccc(Cl)cc1)C(N)=O",
    "recordedMeasurement": 755
  },
  {
    "molecule": "COC(=O)C[C@H](NC(=O)[C@H](CCSC)NC(=O)[C@H](N)Cc1c[nH]c2ccccc12)C(=O)N[C@@H](Cc1cccc(I)c1)C(N)=O",
    "recordedMeasurement": 1990
  }
]

---

Some compounds, each annotated with its measured Agonistic Activity (%) at 10 μM.
Target: CCK-B receptors (CHO-CCK) (Homo sapiens, UniProt P32239)
Construct: expressed in transfected cells; host or cells: CHO (CHO-CCK model cells)
Sequence (P32239 1-447): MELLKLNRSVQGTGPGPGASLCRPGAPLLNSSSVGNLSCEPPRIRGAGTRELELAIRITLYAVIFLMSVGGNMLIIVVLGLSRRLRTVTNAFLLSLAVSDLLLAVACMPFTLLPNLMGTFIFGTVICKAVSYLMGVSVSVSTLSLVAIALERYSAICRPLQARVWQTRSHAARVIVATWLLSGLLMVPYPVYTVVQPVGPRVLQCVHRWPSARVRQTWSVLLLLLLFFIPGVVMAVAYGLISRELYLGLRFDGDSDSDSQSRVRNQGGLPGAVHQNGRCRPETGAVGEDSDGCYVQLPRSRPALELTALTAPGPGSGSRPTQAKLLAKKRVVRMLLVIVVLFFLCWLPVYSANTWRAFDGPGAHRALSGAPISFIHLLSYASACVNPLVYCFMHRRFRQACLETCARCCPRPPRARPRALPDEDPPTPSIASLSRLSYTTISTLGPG
Test: Calcium flux (Fluo-8) agonist test on CHO-CCK model cells
Type: cell-based
Settings: compound at 10 μM; percentage of signal of 20 nM CCK8 alone

[
  {
    "compound": "CS(=O)(=O)CC[C@H](NC(=O)[C@H](N)Cc1c[nH]c2ccccc12)C(=O)N[C@@H](CC(=O)O)C(=O)N[C@@H](Cc1ccc(N=[N+]=[N-])cc1)C(N)=O [HT-65, D-Trp-Met(O2)-Asp-Phe(4-N3)-NH2]",
    "Agonistic Activity (%) at 10 μM": "8.35%"
  },
  {
    "compound": "C[S+]([O-])CC[C@H](NC(=O)[C@H](N)Cc1c[nH]c2ccccc12)C(=O)N[C@@H](CC(=O)OCCNc1cccc2c(O)cccc12)C(=O)N[C@@H](Cc1cccc(Cl)c1)C(N)=O (stereo partly drawn) [HT-145, D-Trp-Met(O)t-Asp(EDANS)-Phe(3-Cl)-NH2]",
    "Agonistic Activity (%) at 10 μM": "−5.52%"
  },
  {
    "compound": "C[S+]([O-])CC[C@H](NC(=O)[C@H](N)Cc1c[nH]c2ccccc12)C(=O)N[C@@H](CC(=O)OCCNc1cccc2c(O)cccc12)C(=O)N[C@@H](Cc1cc(F)c(F)c(F)c1)C(N)=O (stereo partly drawn) [HT-159]",
    "Agonistic Activity (%) at 10 μM": "4.93%"
  }
]

---

Some molecules, each annotated with its measured EC50.
Target: CCK-B receptors (CHO-CCK) (Homo sapiens, UniProt P32239)
Construct: expressed in transfected cells; host or cells: CHO (CHO-CCK model cells)
Assay: Calcium flux (Fluo-8) agonist test on CHO-CCK model cells
Format: cell-based
Settings: CHO-CCK cells, Fluo-8 calcium flux; 100% control = 20 nM CCK8
Where a SMILES comes first, the peptide text is derived from it. [ ]: non-standard residue; d: D form. The star is where a group is joined. NMeW = CN[C@@H](Cc1c[nH]c2ccccc12)C(=O)O; Phe(3-Br) = N[C@@H](Cc1cccc(Br)c1)C(=O)O; dGly(nOct) = CCCCCCCC[C@@H](N)C(=O)O; Fmoc = O=C(OCC1c2ccccc2-c2ccccc21)*; Nle = CCCC[C@H](N)C(=O)O
recordedMetric: EC50 (µM)

[
  {
    "molecule": "CSCC[C@H](NC(=O)[C@H](Cc1c[nH]c2ccccc12)NC(=O)[C@@H](C)N)C(=O)N[C@@H](CC(=O)O)C(=O)N[C@@H](Cc1cccc(Br)c1)C(=O)N[C@H](C)C(N)=O [HT-292, D-Ala-Trp-Met-Asp-Phe(3-Br)-D-Ala-NH2] (H-[dA]WMD[Phe(3-Br)][dA]-NH2)",
    "recordedMeasurement": 1.45
  },
  {
    "molecule": "CCCCCCCC[C@@H](NC(C)=O)C(=O)N[C@@H](CCCC)C(=O)N[C@@H](CCC(=O)O)C(=O)N[C@@H](Cc1cccc(Br)c1)C(N)=O [HT-265, Ac-Da-Nle-Glu-Phe(3-Br)-NH2] (Ac-[dGly(nOct)][Nle]E[Phe(3-Br)]-NH2)",
    "recordedMeasurement": 13
  },
  {
    "molecule": "CSCC[C@H](NC(=O)[C@H](Cc1c[nH]c2ccccc12)NC(=O)CNC(=O)[C@H](CCSC)NC(C)=O)C(N)=O [HT-210, Ac-Met-Gly-Trp-Met-NH2] (Ac-MGWM-NH2)",
    "recordedMeasurement": 0.398
  },
  {
    "molecule": "CCCC[C@H](NC(=O)[C@H](Cc1c[nH]c2ccccc12)N(C)C(=O)OCC1c2ccccc2-c2ccccc21)C(=O)N[C@@H](CC(=O)O)C(=O)N[C@@H](Cc1cccc(Br)c1)C(N)=O [HT-199, Fmoc-(N-Me-Trp)-Nle-Asp-Phe(3-Br)-NH2] (Fmoc-[NMeW][Nle]D[Phe(3-Br)]-NH2)",
    "recordedMeasurement": 0.00147
  },
  {
    "molecule": "CSCC[C@H](NC(=O)[C@@H](Cc1c[nH]c2ccccc12)NC(=O)CNC(=O)[C@H](Cc1ccc(O)cc1)NC(=O)[C@H](CC(N)=O)NC(=O)[C@H](CCCCN)NC(=O)[C@@H](NC(=O)[C@H](C)NC(=O)[C@H](CC(N)=O)NC(=O)[C@@H](NC(=O)[C@H](Cc1c[nH]cn1)NC(=O)CNC(=O)[C@H](CO)NC(=O)[C@H](CC(N)=O)NC(=O)[C@H](C)NC(=O)[C@H](Cc1ccc(O)cc1)NC(C)=O)C(C)C)C(C)C)C(=O)N[C@@H](CC(=O)O)C(=O)N[C@@H](Cc1cccc(Br)c1)C(N)=O [HT-218] (Ac-YANSGHVNAVKNYG[dW]MD[Phe(3-Br)]-NH2)",
    "recordedMeasurement": 0.395
  },
  {
    "molecule": "CCCC[C@H](NC(=O)[C@@H](Cc1cccc(Br)c1)NC(C)=O)C(=O)N[C@@H](CC(=O)O)C(=O)N[C@@H](Cc1cccc(Br)c1)C(N)=O",
    "recordedMeasurement": 0.0977
  },
  {
    "molecule": "CCCC[C@H](NC(=O)[C@@H](Cc1c(C)[nH]c2ccccc12)NC(C)=O)C(=O)N[C@@H](CCC(=O)O)C(=O)N[C@@H](Cc1cn(C)c2ccccc12)C(N)=O",
    "recordedMeasurement": 1.9
  },
  {
    "molecule": "CSCC[C@H](NC(=O)[C@H](Cc1c[nH]c2ccccc12)NC(C)=O)C(=O)N[C@@H](CC(=O)O)C(=O)N[C@@H](Cc1cccc(Br)c1)C(=O)N[C@@H](C)C(N)=O",
    "recordedMeasurement": 4.29
  }
]
